# System: plated rat hepatocytes
# ASSAY_EXPLANATION: In vitro uptake kinetics of gadoxetate in plated rat hepatocytes (mechanistic hepatocyte model)
# Type: in vitro ADME
# CONDITIONS_USED: animal 2; read-out: Km,u
MEASUREMENT_KIND: Km (µM)
Write the answer as a number in µM, unit excluded.

Check the records and state Km for CCOc1ccc(C[C@@H](CN(CCN(CC(=O)[O-])CC(=O)[O-])CC(=O)[O-])N(CC(=O)[O-])CC(=O)[O-])cc1.[Gd+3].[H+].[H+] [gadoxetate]
116

====

# Test system: plated rat hepatocytes
# ASSAY_EXPLANATION: In vitro uptake kinetics of gadoxetate in plated rat hepatocytes (mechanistic hepatocyte model)
# Assay type: in vitro ADME
# CONDITIONS_USED: animal 3; read-out: Km,u
MEASUREMENT_KIND: Km (µM)
Give the quantity in µM, number only.

# assay system plated rat hepatocytes: give Km of CCOc1ccc(C[C@@H](CN(CCN(CC(=O)[O-])CC(=O)[O-])CC(=O)[O-])N(CC(=O)[O-])CC(=O)[O-])cc1.[Gd+3].[H+].[H+] [gadoxetate]
79.8

Origin of values: paper PMC8397403
